- experimentalTarget: Human DAAO enzyme (Homo sapiens (Human), UniProt P14920)
- Sequence (P14920 whole entry): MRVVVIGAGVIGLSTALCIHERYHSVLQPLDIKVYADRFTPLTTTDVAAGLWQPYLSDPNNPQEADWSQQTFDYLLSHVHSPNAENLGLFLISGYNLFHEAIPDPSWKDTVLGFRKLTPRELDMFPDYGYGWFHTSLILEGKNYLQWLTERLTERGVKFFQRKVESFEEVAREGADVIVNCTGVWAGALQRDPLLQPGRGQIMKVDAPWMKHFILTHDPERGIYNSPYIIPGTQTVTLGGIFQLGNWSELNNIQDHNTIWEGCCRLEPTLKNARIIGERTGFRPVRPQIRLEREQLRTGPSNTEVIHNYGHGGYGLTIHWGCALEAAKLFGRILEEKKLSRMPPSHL
- assayProcedure: In Vitro DAAO Enzyme Assay (Amplex Red detection of H2O2 from D-Serine)
- testParameters: inhibition of DAAO activity in the presence of 10 mM D-Serine; 60 minutes at 25° C.
pIC50: −log10 of the molar value.
observationType: pIC50

molecule=O=c1[nH]nc(C2CC2)cc1O observationtype=pIC50 measuredvalue=7.40
molecule=CC(C)(C)c1cc(O)c(=O)[nH]n1 observationtype=pIC50 measuredvalue=7.36
molecule=CN(C)c1cc(O)c(=O)[nH]n1 observationtype=pIC50 measuredvalue=7.34
molecule="CC(C)c1cc(O)c(=O)[nH]n1 [Example 8, 4-Hydroxy-6-isopropylpyridazin-3(2H)-one]" observationtype=pIC50 measuredvalue=7.44
molecule=CC(C)Cc1cc(O)c(=O)[nH]n1 observationtype=pIC50 measuredvalue=6.85
molecule=CCCN(C)c1cc(O)c(=O)[nH]n1 observationtype=pIC50 measuredvalue=6.74
molecule=O=c1[nH]nc(C2CCOCC2)cc1O observationtype=pIC50 measuredvalue=5.39
molecule=O=c1[nH]nc(C2CCCC2)cc1O observationtype=pIC50 measuredvalue=6.17

###

- experimentalTarget: UniProt:P14920
- assayProcedure: In Vitro DAAO Enzyme Assay (Amplex Red detection of H2O2 from D-Serine)
- testParameters: inhibition of DAAO activity in the presence of 10 mM D-Serine; 60 minutes at 25° C.
pIC50: −log10 of the molar value.
Measured pIC50 values are reported for all entries that follow.
observationType: pIC50

compound=O=c1[nH]nc(N2CCC2)cc1O experimentaltarget=UniProt:P14920 observationtype=pIC50 measuredvalue=5.60
compound=CC(C)CCc1cc(O)c(=O)[nH]n1 experimentaltarget=UniProt:P14920 observationtype=pIC50 measuredvalue=7.21
compound=O=c1[nH]nc(N2CCCCC2)cc1O experimentaltarget=UniProt:P14920 observationtype=pIC50 measuredvalue=5.44
compound=CCN(C)c1cc(O)c(=O)[nH]n1 experimentaltarget=UniProt:P14920 observationtype=pIC50 measuredvalue=6.82
compound="CCc1cc(O)c(=O)[nH]n1 [Example 1, 6-Ethyl-4-hydroxypyridazin-3(2H)-one]" experimentaltarget=UniProt:P14920 observationtype=pIC50 measuredvalue=7.96
compound=O=c1[nH]nc(C2CCCCC2)cc1O experimentaltarget=UniProt:P14920 observationtype=pIC50 measuredvalue=5.96

# credit: patent US9750748B2
